- MEASUREMENT PROTOCOL: Bioavailability in Sprague-Dawley rat at 0.1 mg/kg, iv measured up to 8 hrs by LC-MS/MS analysis
- Type: ADME, organism-based
- MEASUREMENT CONDITIONS: in vivo
RECORDED METRIC: bioavailability (%)

O=C(O)c1ccc2nc(-c3cc(Cl)cc(Cl)c3)oc2c1 = 55.8

---

- MEASUREMENT PROTOCOL: Bioavailability in Sprague-Dawley rat at 1 mg/kg, iv measured up to 8 hrs by LC-MS/MS analysis
- Assay type: ADME, organism-based
- MEASUREMENT CONDITIONS: in vivo
RECORDED METRIC: bioavailability (%)

O=C(O)c1cc(Cl)c2oc3ccccc3c(=O)c2c1 = 69.8
Cc1cc(C(=O)O)cc2c(=O)c3ccccc3oc12 = 34.9
